# Test system: MDA-MB-453
# test-description: normalised viability (% of control), CellTiter-Blue; higher = more viable cells (about 100 = DMSO control)
# measurement-parameters: incubation time: 72 h
Overview of recorded normalised viability for various compounds
Return type: number; implicit unit %.

Example results:
COC1=C2C[C@@H](C)C[C@H](OC)[C@H](O)[C@@H](C)/C=C(\C)[C@H](OC(N)=O)[C@@H](OC)/C=C\C=C(/C)C(=O)NC(=CC1=O)C2=O [Geldanamycin] (1000 nM): 7.25
CCOc1cc2ncc(C#N)c(Nc3ccc(OCc4ccccn4)c(Cl)c3)c2cc1NC(=O)/C=C/CN(C)C [Neratinib] (100 nM): 76
C#Cc1cccc(Nc2ncnc3cc(OC)c(OCCCCCCC(=O)NO)cc23)c1 [CUDC-101] (1000 nM): 19.1
c1ccc(C2CN3CCSC3=N2)cc1 (centres undefined) [Tetramisole] (1000 nM): 108
COc1ccc(C2=N[C@@H](c3ccc(Cl)cc3)[C@@H](c3ccc(Cl)cc3)N2C(=O)N2CCNC(=O)C2)c(OC(C)C)c1 [Nutlin-3] (1000 nM): 97.2
CC[C@@]1(O)C(=O)OCc2c1cc1n(c2=O)Cc2cc3ccccc3nc2-1 [Camptothecin] (500 nM): 23.7

q: Which normalised viability value belongs to Cn1c(=O)c(F)c(Nc2ccc(I)cc2F)c2c(=O)n(C[C@@H](O)CO)cnc21 [TAK-733] (100 nM) ?
a: 89.1

q: Which normalised viability value belongs to O=P(O)(NCCCl)NCCCl [Ifosfamide mustard] (1000 nM) ?
a: 104

q: Which normalised viability value belongs to O=c1[nH]c(=O)n([C@H]2C[C@H](O)[C@@H](CO)O2)cc1F [Floxuridine] (1000 nM) ?
a: 81.9

###

# Test system: CAL-148
# measurement-parameters: 72 h
Overview of recorded EC50, CellTiter-Glo for various compounds
Return type: number; implicit unit nM.

Example results:
COC1=C2C[C@@H](C)C[C@H](OC)[C@H](O)[C@@H](C)/C=C(\C)[C@H](OC(N)=O)[C@@H](OC)/C=C\C=C(/C)C(=O)NC(=CC1=O)C2=O: 7190
CCOc1cc2ncc(C#N)c(Nc3ccc(OCc4ccccn4)c(Cl)c3)c2cc1NC(=O)/C=C/CN(C)C: 95.2
COc1ncc(-c2ccc3nccc(-c4ccnnc4)c3c2)cc1NS(=O)(=O)c1ccc(F)cc1F: 76.8

Would you kindly look at the next entry?
q: Which EC50, CellTiter-Glo value belongs to `FC(F)c1nc2ccccc2n1-c1nc(N2CCOCC2)nc(N2CCOCC2)n1` ?
a: 1260

###

# System: HDQ-P1
# test-description: drug sensitivity score (DSS), CellTiter-Glo (DSS (AUC-based score)); higher = stronger drug effect (viability inhibition or cytotoxicity); extreme values may be limits of the assay
# measurement-parameters: incubation time: 72 h
We use 4 as the dividing line for drug sensitivity score: on or above the line is 1, below is -1.

Solved entries:
COc1cccc2c1C(=O)c1c(O)c3c(c(O)c1C2=O)C[C@@](O)(C(C)=O)C[C@@H]3O[C@H]1C[C@H](N)[C@H](O)[C@H](C)O1: -1
COc1c(C)cnc(Cn2cnc3c(Cl)nc(N)nc32)c1C: 1

q: Quick check: does `Cn1cnc2c(F)c(Nc3ccc(Br)cc3F)c(C(=O)NOCCO)cc21` have drug sensitivity score greater than or equal to 4?
a: 1

q: Quick check: does `CCCC(CCC)C(=O)O` have drug sensitivity score greater than or equal to 4?
a: -1

q: Quick check: does `CC(C)C[C@H](NC(=O)[C@H](Cc1ccccc1)NC(=O)c1cnccn1)B(O)O` have drug sensitivity score greater than or equal to 4?
a: 1
